Tested on: prostate cancer cell line (LNCap)
Experiment: Cell growth inhibition assay (Celltiter Glo)
Type: cell-based
Conditions: Homo sapiens, LNCap cells, 120 hours incubation
Binning rule for recorded IC50: low bin: < 1 µM; mid bin: ≥ 1 µM and < 9 µM; high bin: ≥ 9 µM

Molecule	Class assignment
COc1ccc2nc(Cl)cc(NCCc3ccc([N+](=O)[O-])cc3)c2c1 [Example 9]	mid bin
CS(=O)(=O)Nc1ccc(CCNc2ncnc3scnc23)cc1 [Example 69]	low bin
O=[N+]([O-])c1ccc(CCNc2nc(Cl)nc3ncccc23)cc1 [Example 67]	mid bin
O=[N+]([O-])c1ccc(CCNc2ncnc3ccc(-c4ccc(Cl)cc4Cl)cc23)cc1 [Example 54]	high bin
O=Nc1ccc(CCNc2cc(Cl)nc3ccccc23)cc1 [Example 20]	low bin
O=[N+]([O-])c1ccc(CCNc2cc(Cl)nc3ccc(S(=O)(=O)NCCc4ccc([N+](=O)[O-])cc4)cc23)cc1 [Example 19]	high bin
CS(=O)(=O)Nc1ccc(CCNc2ncnc3sccc23)cc1 [Example 68]	low bin
O=C(Cc1ccc([N+](=O)[O-])cc1)Nc1ncnc2ccccc12 [Example 65]	high bin
CCOC(=O)c1ccc2nc(Cl)cc(NCCc3ccc([N+](=O)[O-])cc3)c2c1 [Example 16]	high bin
CS(=O)(=O)Nc1ccc(CCNc2cc(Cl)nc3c(F)cccc23)cc1 [Example 45]	high bin
CS(=O)(=O)Nc1ccc(CCNc2cc(Cl)nc3cc(OC(F)(F)F)ccc23)cc1 [Example 24]	mid bin
O=[N+]([O-])c1ccc(C(F)(F)CNc2ncnc3ccccc23)cc1 [Example 59]	low bin
O=[N+]([O-])c1ccc(CCNc2cc(Cl)nc3ccc(N4CCOCC4)cc23)cc1 [Example 28, 2,2,2-trifluoroacetate]	high bin
O=[N+]([O-])c1ccc(CCNc2cc(Cl)nc3cc(OC(F)(F)F)ccc23)cc1 [Example 12]	high bin
CS(=O)(=O)Nc1ccc(CCNc2ncnc3ccc(F)cc23)cc1 [Example 64]	low bin
Cc1cccc2c(NCCc3ccc([N+](=O)[O-])cc3)cc(Cl)nc12 [Example 15]	mid bin
O=[N+]([O-])c1ccc(CCNc2cc(Cl)nc3ccc(F)cc23)cc1 [Example 14]	mid bin
O=[N+]([O-])c1ccc(CCNc2cc(Cl)nc3ccc(O)cc23)cc1 [Example 35]	mid bin
CS(=O)(=O)Nc1ccc(CCNc2cc(C(F)(F)F)nc3ccccc23)cc1 [Example 52]	mid bin
NNC(=O)c1ccc2nc(Cl)cc(NCCc3ccc([N+](=O)[O-])cc3)c2c1 [Example 44]	high bin
Cc1cnc2ccccc2c1NCCc1ccc(NS(C)(=O)=O)cc1 [Example 72]	mid bin
O=[N+]([O-])c1ccc(CCNc2cncc3ccccc23)cc1 [Example 62, N-(4-nitrophenethyl)isoquinolin-4-amine]	high bin
CCc1cccc2c(NCCc3ccc([N+](=O)[O-])cc3)cc(Cl)nc12 [Example 8]	high bin
CS(=O)(=O)Nc1ccc(CCNc2ncnc3ccsc23)cc1 [Example 66]	low bin
CS(=O)(=O)Nc1ccc(CCNc2ncnc3ccccc23)cc1 [Example 38]	low bin
CS(=O)(=O)Nc1ccc(CCNc2ccnc3c(F)cccc23)cc1 [Example 46]	high bin
CS(=O)(=O)Nc1ccc(CCNc2cc(Cl)nc3ccc(-c4ccc(Cl)cc4Cl)cc23)cc1 [Example 57]	mid bin
CS(=O)(=O)Nc1ccc(CNC(=O)c2cc(Cl)nc3ccccc23)cc1 [Example 58]	high bin
O=[N+]([O-])c1ccc(CCNc2cc(Cl)nc3cc(F)ccc23)cc1 [Example 30]	mid bin
O=C(O)COc1ccc2nc(Cl)cc(NCCc3ccc([N+](=O)[O-])cc3)c2c1 [Example 43]	high bin
CS(=O)(=O)Nc1ccc(CCNc2ccnc3cccc(OC(F)(F)F)c23)cc1 [Example 27]	low bin
NS(=O)(=O)c1ccc(CCN(CCc2ccccc2)c2cc(Cl)nc3ccccc23)cc1 [Example 4]	high bin
O=C(O)c1ccc2nc(Cl)cc(NCCc3ccc([N+](=O)[O-])cc3)c2c1 [Example 40]	high bin
CS(=O)(=O)Nc1ccc(CCNc2cc(Cl)nc3ccccc23)cc1 [Example 7]	low bin
CS(=O)(=O)Nc1ccc(CCNc2nccc3nccnc23)cc1 [Example 71]	high bin

Sourced from patent US12404249B2
